Please provide measured pIC50 for the entries that follow.
# Target of assay: EGFR (Homo sapiens, UniProt P00533)
# Sequence (P00533 25-1210): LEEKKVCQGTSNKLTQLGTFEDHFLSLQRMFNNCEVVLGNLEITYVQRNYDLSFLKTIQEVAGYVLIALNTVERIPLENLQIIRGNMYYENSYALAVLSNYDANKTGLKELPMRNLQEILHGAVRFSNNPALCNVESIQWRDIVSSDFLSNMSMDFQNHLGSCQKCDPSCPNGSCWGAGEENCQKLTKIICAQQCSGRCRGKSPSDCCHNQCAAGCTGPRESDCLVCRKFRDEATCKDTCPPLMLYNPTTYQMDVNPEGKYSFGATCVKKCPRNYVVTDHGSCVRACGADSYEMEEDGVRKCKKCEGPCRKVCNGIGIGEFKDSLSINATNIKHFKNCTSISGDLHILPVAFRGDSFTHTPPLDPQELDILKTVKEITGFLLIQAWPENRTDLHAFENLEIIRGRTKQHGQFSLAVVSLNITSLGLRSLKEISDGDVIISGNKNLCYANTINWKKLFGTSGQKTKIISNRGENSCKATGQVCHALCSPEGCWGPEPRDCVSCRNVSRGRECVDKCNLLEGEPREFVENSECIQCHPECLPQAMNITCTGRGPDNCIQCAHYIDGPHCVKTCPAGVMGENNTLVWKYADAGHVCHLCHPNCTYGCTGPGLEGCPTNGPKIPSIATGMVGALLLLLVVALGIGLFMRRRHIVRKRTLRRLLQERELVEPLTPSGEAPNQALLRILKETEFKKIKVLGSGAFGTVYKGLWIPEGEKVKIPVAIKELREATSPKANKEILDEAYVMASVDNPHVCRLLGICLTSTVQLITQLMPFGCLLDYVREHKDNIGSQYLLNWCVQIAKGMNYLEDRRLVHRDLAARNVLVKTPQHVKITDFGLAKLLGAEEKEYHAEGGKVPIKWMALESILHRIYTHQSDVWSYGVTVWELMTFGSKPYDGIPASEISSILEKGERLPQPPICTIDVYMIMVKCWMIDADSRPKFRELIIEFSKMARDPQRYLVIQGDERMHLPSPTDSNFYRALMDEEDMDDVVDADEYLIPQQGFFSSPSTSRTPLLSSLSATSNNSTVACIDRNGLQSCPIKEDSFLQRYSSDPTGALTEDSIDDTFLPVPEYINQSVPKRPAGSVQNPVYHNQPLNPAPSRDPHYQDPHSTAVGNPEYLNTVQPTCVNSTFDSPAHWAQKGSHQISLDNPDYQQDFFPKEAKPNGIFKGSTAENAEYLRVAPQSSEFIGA
# Experimental protocol: Inhibition of a panel of kinases, in vitro HotSpot kinase assay: EGFR
# Assay type: biochemical
# Recorded conditions: D-compounds panel data; 1 μM ATP
pIC50: −log10 of the molar value.

Below: 5 compounds and their reported pIC50.
C[C@@H]1[C@H](NC(=O)c2ccc(C(C)(C)C#N)cc2)CCCN1c1cnc(C(N)=O)c(Nc2cnn(C)c2)n1: 5.00 to 6.00
C[C@H]1CC[C@@H](NC(=O)N(C)C)CN1c1cnc(C(N)=O)c(Nc2cnn(C)c2)n1: 5.00 to 6.00
C[C@H]1CC[C@@H](NC(=O)c2ccc(C3CC3)cc2)CN1c1cnc(C(N)=O)c(Nc2ccc(N3CCN(C)CC3)c(F)c2)n1: 6.00 to 7.00
C[C@@H]1[C@H](NC(=O)c2ccc(C3CC3)cc2F)CCCN1c1cnc(C(N)=O)c(Nc2ccc(N3CCOCC3)cc2)n1: 5.00 to 6.00
Cc1cc(Nc2nc(N3CCC[C@H](NC(=O)N(C)C)[C@@H]3CO)cnc2C(N)=O)sn1: < 5.00

Dear colleague, could you please provide pIC50 for the compounds listed below?
1. CC1COc2cc(C(=O)N[C@@H]3CCCN(c4cnc(C(N)=O)c(Nc5cnn(C)c5)n4)[C@@H]3C)ccc2C1 (some centres unmarked)
2. C[C@@H]1[C@H](NC(=O)c2ccc3nccn3c2)CCCN1c1cnc(C(N)=O)c(Nc2cnn(C)c2)n1
3. C[C@@H]1[C@H](NC(=O)c2ccc(C3CC3)cc2)CCCN1c1cnc(C(N)=O)c(Nc2cnn(CC3CCC(F)(F)CC3)c2)n1
4. Cn1cc(Nc2nc(N3CCC[C@H]4[C@@H]3CCN4C(=O)c3ccc(C4CC4)cc3)cnc2C(N)=O)cn1
5. C[C@@H]1[C@H](NC(=O)c2ccc(C3CC3)cc2F)CCCN1c1cnc(C(N)=O)c(Nc2ccc3cccnc3c2)n1

Reply:
1. 6.00 to 7.00
2. 5.00 to 6.00
3. < 5.00
4. < 5.00
5. < 5.00

Fill in pIC50 for each of the 3 compounds listed.
1. C[C@@H]1[C@H](NC(=O)c2ccc(C3CC3)cc2)CCCN1c1cnc(C(N)=O)c(Nc2ccc(N3CCC(C(=O)N(C)C)CC3)cc2)n1
2. C[C@@H]1[C@H](NC(=O)c2ccc(C(C)(O)C(F)(F)F)cc2)CCCN1c1cnc(C(N)=O)c(Nc2cnn(C)c2)n1 (single isomer, unassigned) [Example D-214]
3. Cc1ncc(Nc2nc(N3CCC[C@@H](NC(=O)c4ccc(C5CC5)cc4)[C@H]3C)cnc2C(N)=O)s1

Reply:
1: 6.00 to 7.00; 2: 6.00 to 7.00; 3: 5.00 to 6.00

Your task in this section: give pIC50 for each listed record.
1. C[C@@H]1[C@H](NC(=O)c2ccc(C3CC3)cc2)CCCN1c1cnc(C(N)=O)c(Nc2ccc(C3CCOCC3)cc2)n1
2. C[C@@H]1[C@H](NC(=O)c2ncc(C3CC3)cn2)CCCN1c1cnc(C(N)=O)c(Nc2cnn(C)c2)n1
3. C[C@@H]1[C@H](NC(=O)c2ccc(C(C)(C)CO)cc2)CCCN1c1cnc(C(N)=O)c(Nc2cnn(C)c2)n1
4. C[C@@H]1[C@H](NC(=O)c2ccc(C3CC3)cc2)CCCN1c1cnc(C(N)=O)c(Nc2ccc3c(c2)CCOC3)n1

Reply:
1: < 5.00; 2: 5.00 to 6.00; 3: 5.00 to 6.00; 4: < 5.00

---

# Target of assay: LCK (Homo sapiens)
# Sequence (P06239 whole entry): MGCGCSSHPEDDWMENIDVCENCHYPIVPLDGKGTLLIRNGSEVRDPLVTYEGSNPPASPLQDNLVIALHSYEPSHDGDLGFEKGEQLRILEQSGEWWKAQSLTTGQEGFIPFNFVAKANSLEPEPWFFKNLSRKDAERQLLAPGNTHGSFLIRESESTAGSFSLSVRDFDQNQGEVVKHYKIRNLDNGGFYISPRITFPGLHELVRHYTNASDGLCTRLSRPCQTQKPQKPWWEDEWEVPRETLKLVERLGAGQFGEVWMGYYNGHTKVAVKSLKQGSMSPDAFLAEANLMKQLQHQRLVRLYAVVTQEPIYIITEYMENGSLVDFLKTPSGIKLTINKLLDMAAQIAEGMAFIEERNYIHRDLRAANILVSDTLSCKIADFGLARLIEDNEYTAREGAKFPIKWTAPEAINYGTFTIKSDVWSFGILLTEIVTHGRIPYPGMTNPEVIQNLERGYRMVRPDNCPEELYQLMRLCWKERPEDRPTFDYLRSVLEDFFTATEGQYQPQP
# Experimental protocol: Inhibition of a panel of kinases, in vitro HotSpot kinase assay: LCK
# Assay type: biochemical
# Recorded conditions: D-compounds panel data; 1 μM ATP; read-out: IC50 LCK
pIC50: −log10 of the molar value.
Parameter: pIC50

Example molecules with recorded pIC50:
C[C@@H]1[C@H](NC(=O)c2ccc(C3CC3)cc2)CCCN1c1cnc(C(N)=O)c(Nc2ccc(OC3C[C@H]4CC[C@@H](C3)N4C)cc2)n1 (stereo partly drawn) [Example D-104]: 7.00 to 8.00
C[C@@H]1[C@H](NC(=O)c2ccc(C3CC3)cc2)CCCN1c1cnc(C(N)=O)c(Nc2cnn(CC(C)(C)O)c2)n1: 5.00 to 6.00
C[C@@H]1[C@H](NC(=O)c2ccc(C3CC3)cc2)CCCN1c1cnc(C(N)=O)c(Nc2cnn(CCO)c2)n1: 6.00 to 7.00
C[C@@H]1[C@H](NC(=O)c2ccc(C3CC3)cc2)CCCN1c1cnc(C(N)=O)c(Nc2cnn(CC3CCOCC3)c2)n1: 6.00 to 7.00
C[C@@H]1[C@H](NC(=O)c2ccc(-c3ncccn3)cc2)CCCN1c1cnc(C(N)=O)c(Nc2cnn(C)c2)n1: 6.00 to 7.00

// for each molecule below, give its pIC50
1. C[C@@H]1[C@H](NC(=O)c2ccc(C(C)(C)O)cc2F)CCCN1c1cnc(C(N)=O)c(Nc2cnn(C)c2)n1
2. C[C@@H]1CC[C@@H](NC(=O)c2ccc(C3CC3)cc2)CN1c1cnc(C(N)=O)c(Nc2cnn(C)c2)n1
3. C[C@@H]1[C@H](NC(=O)N(C)C)CCCN1c1cnc(C(N)=O)c(Nc2ccc(N3CCN(C)CC3)cc2)c1
4. C[C@@H]1[C@H](NC(=O)c2ccc(C3(CO)CC3)cc2)CCCN1c1cnc(C(N)=O)c(Nc2cnn(C)c2)n1
5. Cc1cc(Nc2nc(N3CCC[C@H](c4ncc(-c5ccccc5)[nH]4)C3)cnc2C(N)=O)sn1
6. C[C@@H]1[C@H](NC(=O)c2ccc3cnn(C)c3c2)CCCN1c1cnc(C(N)=O)c(Nc2cnn(C)c2)n1
7. Cc1ccc(C(=O)N[C@@H]2CCCN(c3cnc(C(N)=O)c(Nc4cnn(C)c4)n3)[C@@H]2C)cc1
8. CC(C)n1nnc2cc(C(=O)N[C@@H]3CCCN(c4cnc(C(N)=O)c(Nc5cnn(C)c5)n4)[C@@H]3C)ccc21

Reply:
["7.00 to 8.00", "5.00 to 6.00", "5.00 to 6.00", "7.00 to 8.00", "6.00 to 7.00", "7.00 to 8.00", "7.00 to 8.00", "6.00 to 7.00"]

---

# Target of assay: UniProt Q08881
# Sequence (Q08881 1-620): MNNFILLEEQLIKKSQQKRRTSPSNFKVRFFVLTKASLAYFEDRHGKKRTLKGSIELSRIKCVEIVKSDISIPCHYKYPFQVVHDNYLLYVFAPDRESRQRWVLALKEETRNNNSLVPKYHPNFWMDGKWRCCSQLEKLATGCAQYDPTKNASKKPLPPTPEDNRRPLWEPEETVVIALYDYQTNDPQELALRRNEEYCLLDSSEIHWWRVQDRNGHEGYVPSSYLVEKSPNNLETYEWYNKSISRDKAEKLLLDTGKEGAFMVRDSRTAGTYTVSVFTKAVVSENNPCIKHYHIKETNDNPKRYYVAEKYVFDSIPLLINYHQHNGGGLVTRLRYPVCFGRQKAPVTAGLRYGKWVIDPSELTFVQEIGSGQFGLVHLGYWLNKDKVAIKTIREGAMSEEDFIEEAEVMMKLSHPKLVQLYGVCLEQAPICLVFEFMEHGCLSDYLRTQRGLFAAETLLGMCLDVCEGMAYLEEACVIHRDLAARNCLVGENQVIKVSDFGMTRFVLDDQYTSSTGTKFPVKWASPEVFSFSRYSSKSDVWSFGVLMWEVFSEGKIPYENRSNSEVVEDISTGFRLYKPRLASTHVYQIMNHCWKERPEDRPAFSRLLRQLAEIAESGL
# Experimental protocol: Inhibition of a panel of kinases, in vitro HotSpot kinase assay: ITK
# Assay type: biochemical
# Recorded conditions: E compounds, Table 17
Parameter: IC50

Below, each entry is followed by its recorded IC50 result.
C=CC(=O)N1CCC[C@@H](Nc2nnc(C(N)=O)c(Nc3cccc(C#N)c3)n2)C1: 0.01 to 0.1 µM
C=CC(=O)N1CC[C@@H](N(C)c2cnc(C(N)=O)c(Nc3ccc(C4(C)CCN(C5CCCC5)CC4)cc3)n2)C1: ≤ 0.01 µM
C=CC(=O)N1CCC[C@@H](Nc2nnc(C(N)=O)c(Nc3cnc4ccccc4c3)n2)C1: 0.01 to 0.1 µM

Task item: Find IC50 (UniProt Q08881) for the entry C=CC(=O)N1CCC[C@@H](Nc2nnc(C(N)=O)c(Nc3ccc(-c4nn[nH]n4)cc3)n2)C1
Reply: 0.01 to 0.1 µM

---

I'd be grateful if you could share measured TEC* IC50 relative to Btk IC50 value for these entries.
# Target of assay: TEC (Homo sapiens, UniProt P42680)
# Sequence (P42680 whole entry): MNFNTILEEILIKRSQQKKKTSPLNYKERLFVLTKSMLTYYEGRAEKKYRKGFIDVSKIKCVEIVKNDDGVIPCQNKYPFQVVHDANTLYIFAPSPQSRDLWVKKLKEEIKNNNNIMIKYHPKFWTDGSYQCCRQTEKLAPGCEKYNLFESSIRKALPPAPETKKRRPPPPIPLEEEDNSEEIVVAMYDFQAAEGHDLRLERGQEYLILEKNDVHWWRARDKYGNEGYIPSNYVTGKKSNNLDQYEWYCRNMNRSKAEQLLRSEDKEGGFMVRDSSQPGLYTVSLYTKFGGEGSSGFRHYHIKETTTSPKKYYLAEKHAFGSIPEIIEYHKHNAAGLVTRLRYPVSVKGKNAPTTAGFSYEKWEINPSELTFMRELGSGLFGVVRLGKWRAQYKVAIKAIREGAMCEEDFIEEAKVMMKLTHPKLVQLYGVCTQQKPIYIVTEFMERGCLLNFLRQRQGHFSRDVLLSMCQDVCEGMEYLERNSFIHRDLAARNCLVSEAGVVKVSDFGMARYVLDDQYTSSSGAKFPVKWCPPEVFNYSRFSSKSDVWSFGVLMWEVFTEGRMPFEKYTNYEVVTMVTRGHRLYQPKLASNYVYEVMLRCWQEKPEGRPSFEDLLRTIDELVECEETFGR
# Experimental protocol: Inhibition of a panel of kinases, in vitro HotSpot kinase assay: TEC
# Format: biochemical
# Recorded conditions: fold relative to Btk IC50 value
Numbers only, in x.

C[C@@H]1[C@H](NC(=O)c2ccc(C3CC3)cc2)CCCN1c1cnc(C(N)=O)c(Nc2cnn(C3CC3)c2)n1: 3
C[C@@H]1[C@H](NC(=O)c2ccc(C(C)(C)O)cc2)CCCN1c1cnc(C(N)=O)c(Nc2cnn(C)c2)n1: 3
C[C@@H]1[C@H](NC(=O)c2ccc(C3CC3)cc2)CCCN1c1nnc(C(N)=O)c(Nc2cnn(C)c2)n1: 8
C[C@@H]1[C@H](NC(=O)c2ccc(C3CC3)cc2)CCCN1c1cnc(C(N)=O)c(Nc2cnn(C(F)F)c2)n1: 3
C[C@@H]1[C@H](NC(=O)c2ccc(C(C)(C)C)cc2)CCCN1c1cnc(C(N)=O)c(Nc2cnn(C)c2)n1: 8
C[C@@H]1[C@H](NC(=O)c2ccc(C3COC3)cc2)CCCN1c1cnc(C(N)=O)c(Nc2cnn(C)c2)n1: 1

// switching to the query molecule
Task item: Any idea what TEC* IC50 relative to Btk IC50 value was measured for Cn1cc(Nc2nc(N3CCC[C@@H](NC(=O)c4ccc(C5CC5)cc4)C3)nnc2C(N)=O)cn1 ?
Reply: 5
